Listed binders paired with reported IFN-γ production (donor X); antibody 10 µg/ml, N = 2
tested-on: T1, TIM-3 protein on human peripheral blood mononuclear lymphocytes (PBMC) (human, UniProt Q8TDQ0 22-301)
T1 sequence: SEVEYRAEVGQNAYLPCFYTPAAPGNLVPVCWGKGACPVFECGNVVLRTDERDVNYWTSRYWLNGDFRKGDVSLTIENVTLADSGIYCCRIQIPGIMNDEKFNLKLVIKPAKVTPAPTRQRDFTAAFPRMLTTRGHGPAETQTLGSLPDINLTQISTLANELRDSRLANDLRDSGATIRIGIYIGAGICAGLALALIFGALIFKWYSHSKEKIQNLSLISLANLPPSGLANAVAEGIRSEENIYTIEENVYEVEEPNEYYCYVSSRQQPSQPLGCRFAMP
assay-explanation: cell-based or functional assay
readout: IFN-γ production (donor X); antibody 10 µg/ml, N = 2

binder: 134H3G6 fully human TIM-3 antibody (human IgG4, kappa) (antibody, V domains shown) VH: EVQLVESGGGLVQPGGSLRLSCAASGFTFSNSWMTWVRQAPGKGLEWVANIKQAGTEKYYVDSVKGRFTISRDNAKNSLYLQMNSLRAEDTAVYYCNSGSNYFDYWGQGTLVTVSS VL: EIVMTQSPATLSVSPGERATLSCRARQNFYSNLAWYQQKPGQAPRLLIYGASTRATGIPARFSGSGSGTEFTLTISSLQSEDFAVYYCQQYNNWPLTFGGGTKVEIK
endpoint-value: 3480 pg/mL
//
binder: 18D2H2 fully human TIM-3 antibody (human IgG4, kappa) (antibody, V domains shown) VH: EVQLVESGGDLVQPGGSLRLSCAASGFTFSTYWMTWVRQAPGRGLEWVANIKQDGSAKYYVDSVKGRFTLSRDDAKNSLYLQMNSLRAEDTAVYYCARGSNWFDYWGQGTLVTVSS VL: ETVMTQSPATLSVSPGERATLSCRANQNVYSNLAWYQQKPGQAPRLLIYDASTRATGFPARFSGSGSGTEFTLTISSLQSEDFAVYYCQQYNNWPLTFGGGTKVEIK
endpoint-value: 3070 pg/mL
//
binder: 57F4E5 fully human TIM-3 antibody (human IgG4, kappa) (antibody, V domains shown) VH: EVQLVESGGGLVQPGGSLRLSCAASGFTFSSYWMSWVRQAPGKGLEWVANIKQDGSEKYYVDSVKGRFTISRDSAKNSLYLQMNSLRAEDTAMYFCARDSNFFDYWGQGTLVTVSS VL: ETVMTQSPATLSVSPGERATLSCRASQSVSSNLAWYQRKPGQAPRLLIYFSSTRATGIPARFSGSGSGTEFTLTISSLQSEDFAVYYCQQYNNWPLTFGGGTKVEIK
endpoint-value: 3340 pg/mL

FYI, the data here is from patent US20220033501A1.
